Target: GIPR (CHO-K1-hGIPR cells) (Homo sapiens, UniProt P48546)
Construct: host or cells: CHO-K1
Sequence (P48546 22-466): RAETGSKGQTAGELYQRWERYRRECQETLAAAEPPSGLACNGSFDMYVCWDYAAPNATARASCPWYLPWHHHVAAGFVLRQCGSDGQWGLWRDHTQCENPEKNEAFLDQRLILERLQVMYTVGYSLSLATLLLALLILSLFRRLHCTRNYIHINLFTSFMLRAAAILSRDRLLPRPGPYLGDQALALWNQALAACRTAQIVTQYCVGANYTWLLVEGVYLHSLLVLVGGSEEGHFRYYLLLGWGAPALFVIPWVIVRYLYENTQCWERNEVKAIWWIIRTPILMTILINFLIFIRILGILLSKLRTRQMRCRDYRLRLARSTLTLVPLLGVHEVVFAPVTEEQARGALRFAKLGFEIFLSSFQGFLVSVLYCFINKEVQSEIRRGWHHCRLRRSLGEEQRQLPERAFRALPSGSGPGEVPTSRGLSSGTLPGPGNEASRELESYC
Assay: FACS binding assay
Settings: competition with 20 nM GIP-057, 4° C. for 1 hour, read-out: pIC50 Category (converted)
*1 amine or outer side, *2 acyl side, *3 side chain or, on linkers, in order; H or OH if unused. Where a SMILES comes first, the peptide text is derived from it. Bridges are numbered along the chain shown (N, C = ends). [ ]: non-standard residue; d: D form. Trp(5-Cl) = N[C@@H](Cc1c[nH]c2ccc(Cl)cc12)C(=O)O; Pyridine(2,6-diCH2) = c1cc(C[*:1])nc(C[*:2])c1; 1Nal = N[C@@H](Cc1cccc2ccccc12)C(=O)O; mXylylene = c1cc(C[*:1])cc(C[*:2])c1; X6 = c1cc(CSCCN[*:2])nc(C[*:1])c1; X7 = c1cc(CSCCN[*:2])cc(C[*:1])c1; Cya = N[C@@H](CS(=O)(=O)O)C(=O)O; Hyp = O=C(O)[C@@H]1C[C@@H](O)CN1; Suc = O=C(CCC(=O)[*:2])[*:1]; Thp = NC1(C(=O)O)CCOCC1; Aib = CC(C)(N)C(=O)O
endpoint: IC50

Consider the worked cases shown below.
Entry under review: CC[C@H](C)[C@@H]1NC(=O)[C@H](CC(C)C)NC(=O)[C@H](C)NC(=O)[C@@H](NC(=O)[C@H](CC(C)C)NC(=O)[C@H](CCC(=O)O)NC(=O)[C@@H]2CCCN2C(=O)[C@H](Cc2c[nH]c3ccccc23)NC(=O)[C@H](Cc2c[nH]c3ccccc23)NC(=O)[C@H](CS(=O)(=O)O)NC(C)=O)CSCc2cccc(c2)CSC[C@@H](C(N)=O)NC1=O [GIP-317] (Ac-[Cya]WWPELCALIC-NH2; linker 7-11 via mXylylene) . Reported IC50?
100 to 794 nM

# input compound: CC[C@H](C)[C@@H]1NC(=O)[C@H](CC(C)C)NC(=O)C2(CCOCC2)NC(=O)[C@@H](NC(=O)[C@@H](CC(C)C)NC(=O)[C@H](CCC(=O)O)NC(=O)[C@@H]2C[C@@H](O)CN2C(=O)[C@H](Cc2c[nH]c3ccc(Cl)cc23)NC(=O)[C@H](Cc2c[nH]c3ccccc23)NC(=O)[C@@H](CC(=O)O)NC(C)=O)CSCc2cccc(n2)CSC[C@@H](C(N)=O)NC1=O [GIP-381] (Ac-[dD]W[Trp(5-Cl)][Hyp]E[dL]C[Thp]LIC-NH2; linker 7-11 via Pyridine(2,6-diCH2)) ; wanted: its IC50
< 10 nM

For the compound shown here, CC[C@H](C)[C@@H]1NC(=O)[C@H](CC(C)C)NC(=O)C(C)(C)NC(=O)[C@@H](NC(=O)[C@H](CC(C)C)NC(=O)[C@H](CCC(=O)O)NC(=O)[C@@H]2CCCN2C(=O)[C@H](Cc2c[nH]c3ccccc23)NC(=O)[C@H](Cc2c[nH]c3ccccc23)NC(=O)[C@H](CC(=O)O)NC(C)=O)CSCc2cccc(c2)CSCCNC1=O [GIP-251] (Ac-DWWPELC[Aib]LI; linker 7-C via X7) , give the reported IC50.
10 to 79.4 nM

Which IC50 is reported for this compound? CC[C@H](C)[C@@H]1NC(=O)[C@H](CC(C)C)NC(=O)[C@H](C)NC(=O)[C@@H](NC(=O)[C@H](CC(C)C)NC(=O)[C@H](CCC(=O)O)NC(=O)[C@@H]2CCCN2C(=O)[C@H](Cc2c[nH]c3ccccc23)NC(=O)[C@H](Cc2c[nH]c3ccccc23)NC(=O)CCC(=O)O)CSCc2cccc(c2)CSCCNC1=O [GIP-256] (Suc-WWPELCALI; linker 6-C via X7)
10 to 79.4 nM

What value of IC50 has been recorded for this entry: CC[C@H](C)[C@@H]1NC(=O)[C@H](CC(C)C)NC(=O)[C@@H](C)NC(=O)[C@@H](NC(=O)[C@H](CC(C)C)NC(=O)[C@H](CCC(=O)O)NC(=O)[C@@H]2CCCN2C(=O)[C@H](Cc2c[nH]c3ccccc23)NC(=O)[C@H](Cc2c[nH]c3ccccc23)NC(=O)CCC(=O)O)CSCc2cccc(c2)CSC[C@@H](C(N)=O)NC1=O [GIP-314] (Suc-WWPELC[dA]LIC-NH2; linker 6-10 via mXylylene)
100 to 794 nM

Look up IC50 for this compound: CC[C@H](C)[C@@H]1NC(=O)[C@H](CC(C)C)NC(=O)C(C)(C)NC(=O)[C@@H](NC(=O)[C@@H](CC(C)C)NC(=O)[C@H](CCC(=O)O)NC(=O)[C@@H]2C[C@@H](O)CN2C(=O)[C@H](Cc2c[nH]c3ccc(Cl)cc23)NC(=O)CNC(=O)[C@H](CS(=O)(=O)O)NC(C)=O)CSCc2cccc(n2)CSCCNC1=O [GIP-316] (Ac-[Cya]G[Trp(5-Cl)][Hyp]E[dL]C[Aib]LI; linker 7-C via X6)
100 to 794 nM

In the following, a different compound is considered.
Quick check: IC50 of CC[C@H](C)[C@@H]1NC(=O)[C@H](CC(C)C)NC(=O)C(C)(C)NC(=O)[C@@H](NC(=O)[C@H](CC(N)=O)NC(=O)[C@H](CCC(=O)O)NC(=O)[C@@H]2CCCN2C(=O)[C@H](Cc2cccc3ccccc23)NC(=O)[C@H](Cc2c[nH]c3ccccc23)NC(=O)[C@H](CC(=O)O)NC(C)=O)CSCc2cccc(c2)CSC[C@@H](C(N)=O)NC1=O [GIP-340] (Ac-DW[1Nal]PENC[Aib]LIC-NH2; linker 7-11 via mXylylene) ?
> 1000 nM
